# Assay target: T1, recombinant hSIRPa (Sino Biologicals, reference 11612-H08H) (human, UniProt P78324 31-370)
# T1 construct: also called SIRPa-His; human SIRPa-His; not shown: His tag (histidine tail)
# T1 sequence (P78324 31-370 limits assumed): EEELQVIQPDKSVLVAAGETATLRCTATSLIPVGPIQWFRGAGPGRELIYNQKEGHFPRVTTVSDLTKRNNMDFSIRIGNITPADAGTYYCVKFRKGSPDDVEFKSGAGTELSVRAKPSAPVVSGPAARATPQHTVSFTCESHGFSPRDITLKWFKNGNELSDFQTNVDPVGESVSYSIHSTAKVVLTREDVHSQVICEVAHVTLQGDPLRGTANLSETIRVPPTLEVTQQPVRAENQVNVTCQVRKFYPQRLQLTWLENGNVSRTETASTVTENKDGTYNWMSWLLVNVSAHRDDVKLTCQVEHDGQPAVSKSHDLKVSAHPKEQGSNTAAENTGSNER
# Protocol: SPR (Biacore); SIRPa-His immobilized on CM5 chip, antibody injected
The following binders are shown together with reported kon values.

{"Binder": "HEFLA (antibody, human IgG4 S228P, kappa, V domains shown, humanized 18D5 variant) VH: EVQLVQSGAEVKKPGESLRISCKASGYSFTSYWVHWVRQMPGKGLEWMGNIDPSDSDTHYSPSFQGHVTLSVDKSISTAYLQLSSLKASDTAMYYCVRGGTGTLAYFAYWGQGTLVTVSS VL: DVVMTQSPLSLPVTLGQPASISCRSSQSLVHSYGNTYLYWYQQRPGQSPRLLIYRVSNRFSGVPDRFSGSGSGTDFTLKISRVEAEDVGVYFCFQGTHVPYTFGGGTKVEIKR", "Display unit": "M⁻¹ s⁻¹", "kon": 559000}
{"Binder": "HFLA (antibody, human IgG4 S228P, kappa, V domains shown, humanized 18D5 variant) VH: EVQLVQSGAEVKKPGESLRISCKASGYSFTSYWVHWVRQMPGKGLEWMGNIDPSDSDTHYSPSFQGHVTLSVDKSISTAYLQLSSLKASDTAMYYCVRGGTGTMAYFAYWGQGTLVTVSS VL: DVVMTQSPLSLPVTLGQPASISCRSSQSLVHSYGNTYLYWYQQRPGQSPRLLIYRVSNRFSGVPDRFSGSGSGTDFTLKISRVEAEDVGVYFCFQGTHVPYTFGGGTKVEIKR", "Display unit": "M⁻¹ s⁻¹", "kon": 857000}
{"Binder": "Kwar23 (antibody, V domains shown) VH: EVQLQQSGAELVKPGASVKLSCTASGFNIKDYYIHWVQQRTEQGLEWIGRIDPEDGETKYAPKFQDKATITADTSSNTAYLHLSSLTSEDTAVYYCARWGAYWGQGTLVTVSS VL: QIVLTQSPAIMSASPGEKVTLTCSASSSVSSSYLYWYQQKPGSSPKLWIYSTSNLASGVPARFSGSGSGTSYSLTISSMEAEDAASYFCHQWSSYPRTFGAGTKLELK", "Display unit": "M⁻¹ s⁻¹", "kon": 244000}
{"Binder": "HFLB (antibody, human IgG4 S228P, kappa, V domains shown, humanized 18D5 variant) VH: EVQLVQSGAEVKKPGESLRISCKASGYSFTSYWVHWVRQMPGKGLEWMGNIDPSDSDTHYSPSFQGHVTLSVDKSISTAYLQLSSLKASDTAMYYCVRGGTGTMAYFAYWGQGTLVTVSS VL: DVVMTQSPLSLPVTLGQPASISCRSSQSLVHSYGNTYLYWFQQRPGQSPRLLIYRVSNRFSGVPDRFSGSGSGTDFTLKISRVEAEDVGVYYCFQGTHVPYTFGGGTKVEIKR", "Display unit": "M⁻¹ s⁻¹", "kon": 791000}
